B1: TPR 5TU (parent)
chain: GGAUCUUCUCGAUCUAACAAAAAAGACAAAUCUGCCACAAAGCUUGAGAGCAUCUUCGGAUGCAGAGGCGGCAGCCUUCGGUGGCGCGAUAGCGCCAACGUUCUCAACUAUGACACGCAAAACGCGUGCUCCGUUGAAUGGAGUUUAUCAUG

Variants of: B1
ASSAY NAME: polymerase ribozyme fitness, log enrichment relative to wild type (log ratio); higher = more active; in vitro selection for triplet polymerase activity
Fewer inactive variants are shown than the library holds.
METRIC NAME: polymerase ribozyme fitness (log ratio)
Lab note: record just the number, no unit beside it.

{"VARIANT DESCRIPTOR": "A12U C18A C36U C57A C95U A97G A98U C125U", "polymerase ribozyme fitness (log ratio)": -3.95}

Which polymerase ribozyme fitness (log ratio) value is on record for C5A C57U C85U ? 0.39

# input variant: U31A G86A U134C ; wanted: its polymerase ribozyme fitness (log ratio) -0.431

Looking for the measured polymerase ribozyme fitness (log ratio) of U53A C87U , can you help? -0.931

What value of polymerase ribozyme fitness (log ratio) has been recorded for this entry: A49G G92C A115U -3.24

For C95U C123U , what is its reported polymerase ribozyme fitness (log ratio)? 0.509

Would you mind telling me what polymerase ribozyme fitness (log ratio) value was observed for U6C A16G A24U C96A C118U ? -3.92

Value lookup for polymerase ribozyme fitness (log ratio); key = G81U -0.702

Would you mind telling me what polymerase ribozyme fitness (log ratio) value was observed for C87U A142G ? -0.623

Field request: polymerase ribozyme fitness (log ratio) | item: C93A C116G A142G -3.07
